Entries annotated with measured IC50
system: pERK in MKN1 cells; experiment: pERK inhibition, In-Cell Western (LI-COR Odyssey), MKN1 cells; format: cell-based; conditions: Table B; MKN1 or H358 cells (table does not say which); 0.5-1 hour incubation; read-out: IC50 (nM), pERK inhibition
Quantity Name: IC50 (nM)

Cc1c(C#N)cccc1[C@@H](C)Nc1nnc(C)c2cnc(N3C[C@@H]4[C@H]3CCN4C)cc12 (single isomer, unassigned) [Example 6-8] ... 33.8
Cc1c(C#N)cccc1[C@@H](C)Nc1nnc(C)c2cc(F)c(N3C[C@@H]4C[C@H]3CN4C)cc12 [Example 4-14] ... 41.6
Cc1c(C#N)cccc1[C@@H](C)Nc1nnc(C)c2cnc(N3C[C@H]4[C@@H]3CCN4C)cc12 (single isomer, unassigned) [Example 6-12] ... 13.7
CCN(c1cc2c(N[C@H](C)c3cccc(C#N)c3C)nnc(C)c2cn1)C1CCN(C)C1 (stereo in doubt) ... 75.5
Cc1c(C#N)cccc1[C@@H](C)Nc1nnc(C)c2cc(F)c(N3C[C@@H]4C[C@H]3CN4C)cc12 [Example 4-21] ... 16
Cc1c(C#N)cccc1[C@@H](C)Nc1nnc(C)c2cnc(N3C[C@@H]4[C@H]3CCN4C)cc12 (single isomer, unassigned) [Example 6-13] ... 16.3
Cc1c(C#N)cccc1[C@@H](C)Nc1nnc(C)c2cnc(N3C[C@H]4[C@@H]3CCN4C)cc12 (single isomer, unassigned) [Example 6-9] ... 69.4
